Tested on: SU-DHL-6 cells
measurement.description: Tumor cell proliferation IC50 (CCK-8), SU-DHL-6
conditions: Homo sapiens, SU-DHL-6, 72 h, read-out: IC50 for inhibiting the proliferation of tumor cells, SU-DHL-6
Field: IC50. Provide a value for each of the molecules that follow.

[in] IC50 for O=C1CCC(N2Cc3cc(-c4ccc(CN5CCN(Cc6ccccc6-c6ccc(Cl)cc6)CC5)cc4)ccc3C2=O)C(=O)N1 (stereo not shown) ?
[out] 100 to 500 nM

[in] IC50 for Nc1cccc2c1C(=O)N(C1CCC(=O)NC1=O)C2=O (stereo not shown) [pomalidomide, reference compound] ?
[out] > 10000 nM

[in] IC50 for CC1(C)CCC(CN2CCN(Cc3cc4c(cc3F)C(=O)N(C3CCC(=O)NC3=O)C4)CC2)=C(c2ccc(Cl)cc2)C1 (stereo not shown) ?
[out] 1000 to 5000 nM

[in] IC50 for O=C1CCC(N2Cc3cc(CN4CCN(Cc5ccccc5-c5ccc(Cl)cc5)CC4)ccc3C2=O)C(=O)N1 (stereo not shown) ?
[out] 10 to 50 nM

The origin of these recorded values is patent US20260028326A1.
